Quick list: CC50 per entry.
- Test system: TK-10
- assay_method_text: Anticancer activity against Homo sapiens (human) TK10 cells after 48 hr by SRB assay
- Format: functional
- condition_set: TK-10, 48 h, read-out: LC50 (the source's name)

// known answers, use as guide
[[record]]
test_smiles = "COc1ccc(OC)c(/C=C/C(=O)N/N=C/c2ccc(Cl)cc2)c1"
property = "CC50"
reported_result = "> 100 µM"

[[record]]
test_smiles = "COc1ccc(OC)c(/C=C/c2nnc(S)n2-c2ccc(Cl)cc2)c1"
property = "CC50"
reported_result = "> 100 µM"

[[record]]
test_smiles = "COc1ccc(OC)c(/C=C/C(=O)N/N=C/c2ccccc2)c1"
property = "CC50"
reported_result = "> 100 µM"


Give the measured CC50 of `COc1ccc(OC)c(/C=C/c2nnc(Nc3ccc(Cl)cc3)o2)c1` .
> 100 µM
